# reported pKd; entries follow
- Test System: HIV-1 envelope glycoprotein gp120 (IIIB) (HIV-1 IIIB (HXB2 clone entry), UniProt P04578)
- Experiment Description: SPR; gp120 (IIIB) coupled covalently to a CM5 chip; D7 or D7 mutants at 25 and 100 nM flowed over; Biacore X; 10 mM HEPES pH 7.5, 100 mM NaCl, 0.05% P20; 30 µl/min; association 3 min, dissociation 15 min; simultaneous fit of association and dissociation
- Study Conditions: both partners purified
Scale note: pKd = -log10(concentration in M).

[[record]]
binder = "VHH D7 Tyr100A→Ala (VHH, PDB 2xa3 holds D7 with five framework changes) with the stated CDR3 mutation; Chothia numbering (100A is an insertion position)) VHH: AVQLVESGGGLAQAGGSLRLSCTVSGRTSSSHDMGWFRQAPGKEREFVAAISWSGGTTNYADSVKGRFAISKDNAKNAVSLQMNSLKPEDTAVYYCAAKWRPLRASDNPSNSDYNYWGQGTQVTVSS"
observed_measurement = 8.81


Input: I am curious: what pKd value has been reported for VHH D7 Asn100D→Ala (VHH, PDB 2xa3 holds D7 with five framework changes) with the stated CDR3 mutation; Chothia numbering (100D is an insertion position)) VHH: AVQLVESGGGLAQAGGSLRLSCTVSGRTSSSHDMGWFRQAPGKEREFVAAISWSGGTTNYADSVKGRFAISKDNAKNAVSLQMNSLKPEDTAVYYCAAKWRPLRYSDAPSNSDYNYWGQGTQVTVSS ?
Output: 9.29

Input: // query pKd value for entry llama heavy chain antibody fragment VHH D7, wild type (VHH, PDB 2xa3 holds D7 with the framework changes Val5Gln, Ala11Val, Ala61Val, Ala68Asp and Ser79Tyr against wild type D7) VHH: AVQLVESGGGLAQAGGSLRLSCTVSGRTSSSHDMGWFRQAPGKEREFVAAISWSGGTTNYADSVKGRFAISKDNAKNAVSLQMNSLKPEDTAVYYCAAKWRPLRYSDNPSNSDYNYWGQGTQVTVSS
Output: 8.54

Input: What does the record list as pKd for VHH D7 Leu99→Ala (VHH, PDB 2xa3 holds D7 with five framework changes) with the stated CDR3 mutation; Chothia numbering) VHH: AVQLVESGGGLAQAGGSLRLSCTVSGRTSSSHDMGWFRQAPGKEREFVAAISWSGGTTNYADSVKGRFAISKDNAKNAVSLQMNSLKPEDTAVYYCAAKWRPARYSDNPSNSDYNYWGQGTQVTVSS ?
Output: 7.16
